Here, each record is paired with measured pEC50 data.
tested on: HCT-15; assay: Cytotoxicity against human HCT15 cells by SRB assay; format: functional; conditions: read-out: ED50 (the source's name)
pEC50: −log10 of the molar value.
endpointName: pEC50

# compound, experimentalSystem, assayResult
measured = [
    ("C=C1[C@@H]2[C@H]3OC(=O)[C@@H](CN[C@@H](Cc4c[nH]c5ccccc45)C(=O)O)[C@@H]3[C@@H](O)CC(=C)[C@@H]2C[C@@H]1O", "HCT-15", "< 4.52"),
    ("C=C1[C@@H]2[C@H]3OC(=O)[C@H](C)[C@@H]3[C@@H](O)CC(=C)[C@@H]2C[C@@H]1O", "HCT-15", "< 4.52"),
    ("C=C1C(=O)O[C@@H]2[C@H]3C(=C)[C@@H](O)C[C@H]3C(=C)C[C@H](O)[C@@H]12", "HCT-15", 4.95),
    ("C=C1[C@@H]2[C@H]3OC(=O)[C@@H](CN[C@@H](CC(N)=O)C(=O)O)[C@@H]3[C@@H](O)CC(=C)[C@@H]2C[C@@H]1O", "HCT-15", "< 4.52"),
    ("C=C1C(=O)O[C@@H]2[C@H]3C(=C)[C@@H](O)C[C@H]3C(=C)C[C@H](OC(=O)CC(C)(C)O)[C@@H]12", "HCT-15", 4.85),
    ("C=C1[C@@H]2[C@H]3OC(=O)[C@@H](CN[C@H](C(=O)O)C(C)C)[C@@H]3[C@@H](O)CC(=C)[C@@H]2C[C@@H]1O", "HCT-15", "< 4.52"),
    ("COc1cccc2c1C(=O)c1c(O)c3c(c(O)c1C2=O)C[C@@](O)(C(=O)CO)C[C@@H]3O[C@H]1C[C@H](N)[C@H](O)[C@H](C)O1", "HCT-15", 6.79),
    ("C=C1[C@@H]2[C@H]3OC(=O)[C@@H](CN[C@@H](Cc4ccccc4)C(=O)O)[C@@H]3[C@@H](O)CC(=C)[C@@H]2C[C@@H]1O", "HCT-15", "< 4.52"),
    ("C=C1[C@@H]2[C@H]3OC(=O)[C@H](C)[C@@H]3[C@@H](OC(=O)C(C)(O)CO)CC(=C)[C@@H]2C[C@@H]1O (some centres not stated)", "HCT-15", "< 4.52"),
    ("C=C1C(=O)O[C@@H]2[C@H]3C(=C)[C@H](O)C[C@H]3C(=C)C[C@H](OC(=O)C(C)(O)CO)[C@@H]12 (some centres not stated)", "HCT-15", 4.54),
    ("C=C1[C@@H]2[C@H]3OC(=O)[C@@H](CNCCCC(=O)O)[C@@H]3[C@@H](O)CC(=C)[C@@H]2C[C@@H]1O", "HCT-15", "< 4.52"),
    ("C=C1[C@@H]2[C@H]3OC(=O)[C@H](C)[C@@H]3[C@@H](O[C@@H]3O[C@H](CO)[C@@H](O)[C@H](O)[C@H]3O)CC(=C)[C@@H]2C[C@@H]1O", "HCT-15", "< 4.52"),
]

====

test system: A549; test: Cytotoxicity against human A549 cells by SRB assay; assay type: functional; settings: read-out: ED50 (the source's name)
pEC50: −log10 of the molar value.

# compound, experimentalSystem, pEC50
rows = [
    ("C=C1C(=O)O[C@@H]2[C@H]3C(=C)[C@H](O)C[C@H]3C(=C)C[C@H](OC(=O)C(C)(O)CO)[C@@H]12 (stereo not given in full)", "A549", "< 4.52"),
    ("C=C(CO)C(=O)O[C@H]1CC(=C)[C@@H]2C[C@H](O)C(=C)[C@@H]2[C@H]2OC(=O)C(=C)[C@@H]21", "A549", 4.61),
    ("C=C1[C@@H]2[C@H]3OC(=O)[C@@H](CN[C@H](C(=O)O)[C@H](C)CC)[C@@H]3[C@@H](O)CC(=C)[C@@H]2C[C@@H]1O", "A549", "< 4.52"),
    ("C=C1[C@@H]2[C@H]3OC(=O)[C@H](C)[C@@H]3[C@@H](OC(=O)C(C)(O)CO)CC(=C)[C@@H]2C[C@@H]1O (stereo not given in full)", "A549", "< 4.52"),
    ("C=C1[C@@H]2[C@H]3OC(=O)[C@H](C)[C@@H]3[C@@H](O[C@@H]3O[C@H](CO)[C@@H](O)[C@H](O)[C@H]3O)CC(=C)[C@@H]2C[C@@H]1O", "A549", "< 4.52"),
    ("C=C1C(=O)O[C@@H]2[C@H]3C(=C)[C@@H](O)C[C@H]3C(=C)C[C@H](O)[C@@H]12", "A549", 4.59),
    ("C=C1[C@@H]2[C@H]3OC(=O)[C@@H](CN4CCC[C@H]4C(=O)O)[C@@H]3[C@@H](OC(=O)C(C)(O)CO)CC(=C)[C@@H]2C[C@@H]1O (stereo not given in full)", "A549", 4.56),
    ("C=C1[C@@H]2[C@H]3OC(=O)[C@H](C)[C@@H]3[C@@H](O)CC(=C)[C@@H]2C[C@@H]1O", "A549", "< 4.52"),
    ("C=C1[C@@H]2[C@H]3OC(=O)[C@@H](CN[C@@H](CC(N)=O)C(=O)O)[C@@H]3[C@@H](O)CC(=C)[C@@H]2C[C@@H]1O", "A549", "< 4.52"),
    ("C=C1[C@@H]2[C@H]3OC(=O)[C@@H](CNCCCC(=O)O)[C@@H]3[C@@H](O)CC(=C)[C@@H]2C[C@@H]1O", "A549", "< 4.52"),
    ("C=C1C(=O)O[C@@H]2[C@H]3C(=C)[C@@H](O)C[C@H]3C(=C)C[C@H](OC(=O)CC(C)(C)O)[C@@H]12", "A549", "< 4.52"),
    ("C=C1[C@@H]2[C@H]3OC(=O)[C@@H](CN[C@@H](Cc4c[nH]c5ccccc45)C(=O)O)[C@@H]3[C@@H](O)CC(=C)[C@@H]2C[C@@H]1O", "A549", "< 4.52"),
    ("C=C1[C@@H]2[C@H]3OC(=O)[C@@H](CN[C@@H](Cc4ccccc4)C(=O)O)[C@@H]3[C@@H](O)CC(=C)[C@@H]2C[C@@H]1O", "A549", "< 4.52"),
    ("COc1cccc2c1C(=O)c1c(O)c3c(c(O)c1C2=O)C[C@@](O)(C(=O)CO)C[C@@H]3O[C@H]1C[C@H](N)[C@H](O)[C@H](C)O1", "A549", 8.15),
    ("C=C1[C@@H]2[C@H]3OC(=O)[C@@H](CN[C@H](C(=O)O)C(C)C)[C@@H]3[C@@H](O)CC(=C)[C@@H]2C[C@@H]1O", "A549", "< 4.52"),
]

The reported measurements were obtained from ChEMBL document CHEMBL1149862.
